test system: OVCAR-4 ovarian; experiment: NCI tumour cell line growth inhibition, 48 h
TGI values by entry
reported-property: TGI

compound	reported-property	reported-measurement
CCOc1cccc(/C=N/NC(=O)c2cccc(Nc3ccnc(C(F)(F)F)c3)c2)c1O	TGI	48.6 µM
O=[N+]([O-])c1ccc(CSc2nncc3[nH]cnc23)cc1	TGI	> 100 µM
Cn1c(Cl)c(/C=C2/C(=O)Nc3ccccc32)c2ccccc21	TGI	> 46.7 µM
CS(=O)(=O)Nc1ccc2ccccc2c1-c1c(NS(C)(=O)=O)ccc2ccccc12	TGI	> 25 µM
CCCCCCNCCc1cnc[nH]1	TGI	> 100 µM
COc1cc(NS(=O)(=O)c2ccc(C)cc2)c2nccnc2c1	TGI	> 100 µM
Cc1ccc(C(=O)O)c(/C=C2\Cc3ccc(C)cc3C2=O)c1	TGI	> 100 µM
OC(CC1CCCCN1)c1ccc2c(c1)oc1ccccc12 (configuration not stated)	TGI	> 100 µM
CCC1C[N+]23CCc4c([nH]c5ccccc45)C2CC1CC3 (configuration not stated)	TGI	> 100 µM
Oc1ccc2ccccc2c1N=Nc1cccc2ccccc12	TGI	> 100 µM
C/C(=N\NS(=O)(=O)c1ccc(C)cc1)c1ccccn1	TGI	> 100 µM
Cc1ccc(S(=O)(=O)OC2CC=CC2)cc1	TGI	> 100 µM
COc1ccc(C2=C[C@]3(O)CCCN3C[C@@H]2c2ccc(OC)c(OC)c2)cc1	TGI	0.0384 µM
COC(=O)c1ccc2[nH]c(O)c(C(=Nc3ccc(N(C)C(=O)CN4CCN(C)CC4)cc3)c3ccc4c(c3)OCO4)c2c1	TGI	2.72 µM
CNc1ncccc1Nc1cc(=O)n2c3cccnc3n(C)c2c1	TGI	> 100 µM
C[C@@H](C(=O)O)N1C(c2ccco2)=C(/C(C=O)=C\c2ccco2)C(=O)/C1=C\c1ccco1	TGI	> 100 µM
O=C1CS(=O)(=O)C(c2cccc(Oc3ccccc3)c2)N1c1ccc(Cl)cc1 (configuration not stated)	TGI	> 100 µM
O=C(/C=C/c1ccc(O)c(O)c1)OCC(OC(=O)/C=C/c1ccc(O)c(O)c1)C(=O)O (configuration not stated)	TGI	> 100 µM
CCC1=CCN(c2cc(C)ccn2)OC1c1ccc(OC)cc1 (configuration not stated)	TGI	> 100 µM
CC(=O)OC1OC([C@H]2c3cccc(O)c3C(=O)c3c(O)cc(C)cc32)C(O)C(O)C1O (some centres not stated)	TGI	> 89.2 µM
COc1ccc2c(c1)NC1=C(C(=O)OC1)C2c1cc(OC)c(OC)c(OC)c1 (configuration not stated)	TGI	> 100 µM
Cc1cc(C)nc(NS(=O)(=O)c2ccc(Nc3c4ccccc4nc4ccc(C(=O)Nc5ccc(S(N)(=O)=O)cc5)cc34)cc2)n1	TGI	> 100 µM

* * *

test system: SR leukemia; experiment: NCI tumour cell line growth inhibition, 48 h
GI50 values by entry

compound	GI50
C=C1c2c(C)nn(-c3ccc(C#CCOC4OC(CO)C(O)C(O)C4O)cc3)c2N(C)C23C[C@H]1C1(C)c4c(C)nn(-c5ccc(C#CCOC6OC(CO)C(O)C(O)C6O)cc5)c4N(C)C(C)(C[C@H]12)C3 (stereo partly drawn)	3.28 µM
Cc1nnc(-c2ccc(C)c(-c3ccc(C(=O)Nc4cccc(C#N)c4)cc3)c2)o1	> 25 µM
C[C@]12CCc3sc(Nc4ccc(OC(F)(F)F)cc4)nc3C1=CC[C@@H]1[C@@H]2CC[C@]2(C)C(=O)CC[C@@H]12	2.74 µM
CCCC(C)c1ccc(OCCCCCCN2CCNCC2)cc1 (stereo not drawn)	1.7 µM
CCOc1cc(C(C)(C)C)ccc1C1=N[C@H](c2ccc(Cl)cc2)[C@H](c2ccc(Cl)cc2)N1C(=O)N1CCN(CC#Cc2cccc3c2CN([C@@H]2CCC(=O)NC2=O)C3=O)CC1	0.642 µM
CCCOC(=O)N[C@H]1CCc2c(Cl)c(OC)c(OC)c(OC)c2-c2ccc(SC)c(=O)cc21	< 0.01 µM
COc1ccc2c(c1)OC1=C(C(=O)OC1)C2c1cc(OC)c2c(c1)OCCO2 (stereo not drawn)	0.0318 µM
CC(C)CNc1nc(-c2ccccc2Cl)nc2ccccc12	19.7 µM

* * *

test system: RPMI-8226 leukemia; assay: NCI tumour cell line growth inhibition, 48 h

compound	TGI
CC(=O)c1ccc(NC(=O)/C(CC(=O)c2sc(-c3cccnc3)nc2C)=N/NC(N)=O)cc1	54.4 µM
C=C(C)[C@@H]1CC[C@]2(COCCCN)CC[C@]3(C)[C@H](CC[C@@H]4[C@@](C)(CCCNCCCN)[C@H](C(=C)C)CC[C@]43C)[C@@H]12	5.08 µM
Cc1nc2ccc(Br)cc2c(=O)n1-c1nnc(C(C)(C)C)s1	> 10 µM
CC1=C2C(O)C(C(C)C(=O)N(C)C)CCC2(C)C=CC1=O (stereo not given)	> 100 µM
Clc1ccc(CCN(CCc2ccc(Cl)c(Cl)c2)CCN2CCCC2)cc1Cl	5.38 µM
Nc1cc([N+](=O)[O-])ccc1C(=O)N1CCC[C@H]1CO	> 100 µM
Cc1ccc(C2(O)CSC(=NC34CC5CC(CC(C5)C3)C4)N2C(P(=O)(O)O)P(=O)(O)O)cc1 (stereo not given)	> 100 µM
CC1(O)C(C)(O)C2(C)O[Te]3(OC12C)OC1(C)C(C)(O)C(C)(O)C1(C)O3 (stereo not given)	37.9 µM
CCCCCCNCCc1cnc[nH]1	> 100 µM
C=C1C(=O)OC2/C=C(\C(=O)O)CC/C=C(\C)CC(OC(=O)/C=C(\C)CC)C12 (stereo not given)	> 100 µM
CCCCC1(NN=C2CCCCC2)C(=O)N(c2ccccc2)N(c2ccccc2)C1=O	> 100 µM
N/N=C\c1c2ccccc2c(=O)n2c1oc1ccccc12	29 µM
O=C(Oc1ccc[nH]c1=O)c1cc([N+](=O)[O-])cc([N+](=O)[O-])c1	> 100 µM
C=CC[C@]1(/C=N/O)CN(S(=O)(=O)CC[Si](C)(C)C)C[C@H]2CC=CC[C@H]21	31.8 µM
CCOC1C(Br)Cn2c(=O)c3cc4ccccc4cc3c(=O)n2C1C (stereo not given)	> 100 µM
O=S(=O)(C1=CC(S(=O)(=O)c2ccccc2)CN(Cc2ccccc2)C1c1cccc2ccccc12)c1ccccc1 (stereo not given)	> 69 µM
Cc1cn(-c2cc(NC(=O)c3cccc(C#Cc4cccc5[nH]nc(N)c45)c3)cc(C(F)(F)F)c2)cn1	> 100 µM
CCC1=CCN(c2cc(C)ccn2)OC1c1ccc(OC)cc1 (stereo not given)	62.6 µM
Cc1ccc(C(=O)N/N=C(\N=Nc2cccc([N+](=O)[O-])c2)c2ccc(N(CCC#N)CCC#N)cc2C)cc1	> 100 µM
O=C(Nc1cccc(O)c1)C(=O)C1C(=O)NC(=S)NC1=O	> 100 µM

* * *

system: SK-MEL-2 melanoma; test: NCI tumour cell line growth inhibition, 48 h; in the data active = GI50 below about 0.43 µM; inactive = the rest
Outcomes: 1.0 (active), 0.0 (inactive)

compound	assigned-category
CC(=O)OC1OC([C@H]2c3cccc(O)c3C(=O)c3c(O)cc(C)cc32)C(O)C(O)C1O (stereo not given in full)	1.0
CN(C)C/C=C/C(=O)Nc1ccc(C(=O)N[C@@]2(C)CCC[C@@H](Nc3ncc(Cl)c(-c4c[nH]c5ccccc45)n3)C2)nc1	1.0
CC(C)CNc1nc(-c2ccccc2Cl)nc2ccccc12	0.0
CCN1C(=O)c2ccc3c4c(ccc(c24)C1=O)C(=O)N(CCCNCc1ccccc1OC)C3=O	0.0
CCC[CH2][Sn]([CH2]CCC)([O]C(=O)CN)[O]C(=O)CN	0.0

* * *

GI50 values by entry
system: UO-31 renal; test: NCI tumour cell line growth inhibition, 48 h

compound	GI50
C[C@]12CCc3sc(Nc4ccc(OC(F)(F)F)cc4)nc3C1=CC[C@@H]1[C@@H]2CC[C@]2(C)C(=O)CC[C@@H]12	2.06 µM
COC(=O)c1ccc2[nH]c(O)c(C(=Nc3ccc(N(C)C(=O)CN4CCN(C)CC4)cc3)c3ccc4c(c3)OCO4)c2c1	1.3 µM
O=c1[nH]c2ccccc2cc1-c1nc2ccc(Cl)cc2[nH]1	3.31 µM
CCCCCCCCn1ccc2cc(NC(=O)Cn3cc(CN4CCCCCC4)nn3)ccc21	1.48 µM
CCC[CH2][Sn]([CH2]CCC)([O]C(=O)CN)[O]C(=O)CN	> 100 µM
CCN1C(=O)/C(=C/c2c(Cl)[nH]c3cc(C)c(OC)cc23)c2ccccc21	2.87 µM
CCCC(C)c1ccc(OCCCCCCN2CCNCC2)cc1 (configuration not stated)	4.32 µM
CN(c1ccc(NC(=O)Nc2c(Cl)cccc2Cl)cc1)c1ccnc(Nc2cccc(CS(C)(=O)=O)c2)n1	4.28 µM
O=C(Oc1ccc[nH]c1=O)c1cc([N+](=O)[O-])cc([N+](=O)[O-])c1	23.6 µM
COc1cccc2c1C(=N)c1c(O)c3c(c(O)c1C2=O)C[C@@](O)(C(C)=O)C[C@@H]3O[C@H]1C[C@H](N)[C@H](O)[C@H](C)O1	2.24 µM
Cc1cc(Cl)ccc1OCC(=O)Nc1nc2c(Cl)cccc2s1	> 100 µM
CC(C)CNc1nc(-c2ccccc2Cl)nc2ccccc12	17.1 µM
